Every entry's value here was drawn from paper PMC11966277.

kcat reference
Substrate: O=C(O)C(=O)O
assay_comment: purified protein
experimental_setup: pH 4.2 (optimum), 52 mM sodium acetate, 140 mM NaCl, 37 °C, potassium oxalate 0-150 mM, Mn enzyme
API: value field is a number in s⁻¹; no unit string.

protein	kcat (s⁻¹)
Oxalate decarboxylase (OxDC) (Bacillus subtilis subsp. subtilis str. 168; I191F) (protein) MKKQNDIPQPIRGDKGATVKIPRNIERDRQNPDMLVPPETDHGTVSNMKFSFSDTHNRLEKGGYAREVTVRELPISENLASVNMRLKPGAIRELHWHKEAEWAYMIYGSARVTIVDEKGRSFIDDVGEGDLWYFPSGLPHSIQALEEGAEFLLVFDDGSFSENSTFQLTDWLAHTPKEVIAANFGVTKEEFSNLPGKEKYIFENQLPGSLKDDIVEGPNGEVPYPFTYRLLEQEPIESEGGKVYIADSTNFKVSKTIASALVTVEPGAMRELHWHPNTHEWQYYISGKARMTVFASDGHARTFNYQAGDVGYVPFAMGHYVENIGDEPLVFLEIFKDDHYADVSLNQWLAMLPETFVQAHLDLGKDFTDVLSKEKHPVVKKKCSK	101
Oxalate decarboxylase (OxDC) (Bacillus subtilis subsp. subtilis str. 168; H279D/I191F) (protein) MKKQNDIPQPIRGDKGATVKIPRNIERDRQNPDMLVPPETDHGTVSNMKFSFSDTHNRLEKGGYAREVTVRELPISENLASVNMRLKPGAIRELHWHKEAEWAYMIYGSARVTIVDEKGRSFIDDVGEGDLWYFPSGLPHSIQALEEGAEFLLVFDDGSFSENSTFQLTDWLAHTPKEVIAANFGVTKEEFSNLPGKEKYIFENQLPGSLKDDIVEGPNGEVPYPFTYRLLEQEPIESEGGKVYIADSTNFKVSKTIASALVTVEPGAMRELHWHPNTDEWQYYISGKARMTVFASDGHARTFNYQAGDVGYVPFAMGHYVENIGDEPLVFLEIFKDDHYADVSLNQWLAMLPETFVQAHLDLGKDFTDVLSKEKHPVVKKKCSK	110

As a next step, examine the protein that follows.
Incoming: Endpoint output: kcat of Oxalate decarboxylase (OxDC) (Bacillus subtilis subsp. subtilis str. 168; I191F/T263E) (protein) MKKQNDIPQPIRGDKGATVKIPRNIERDRQNPDMLVPPETDHGTVSNMKFSFSDTHNRLEKGGYAREVTVRELPISENLASVNMRLKPGAIRELHWHKEAEWAYMIYGSARVTIVDEKGRSFIDDVGEGDLWYFPSGLPHSIQALEEGAEFLLVFDDGSFSENSTFQLTDWLAHTPKEVIAANFGVTKEEFSNLPGKEKYIFENQLPGSLKDDIVEGPNGEVPYPFTYRLLEQEPIESEGGKVYIADSTNFKVSKTIASALVEVEPGAMRELHWHPNTHEWQYYISGKARMTVFASDGHARTFNYQAGDVGYVPFAMGHYVENIGDEPLVFLEIFKDDHYADVSLNQWLAMLPETFVQAHLDLGKDFTDVLSKEKHPVVKKKCSK . Value?
Outgoing: 37
